- test-system: Aurora kinase A (Homo sapiens);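 also: values are mean percent inhibition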
- run-conditions: at 1 µM
measure: inhibition (%)

[
  {
    "smiles-structure": "CCS(=O)(=O)c1ccc(OC)c(Nc2nccc(N(C)c3ccc4c(C)n[nH]c4c3)n2)c1",
    "reading-unit": "%",
    "endpoint-value": 6.77
  },
  {
    "smiles-structure": "O=S(=O)(CCOCc1ccc(-c2ccc3ncnc(Nc4ccc(OCc5cccc(F)c5)c(Cl)c4)c3c2)o1)c1ccccc1",
    "reading-unit": "%",
    "endpoint-value": 2.01
  },
  {
    "smiles-structure": "Cc1ccc(O)cc1Nc1ccnc2ccc(S(C)(=O)=O)cc12",
    "reading-unit": "%",
    "endpoint-value": 6.17
  },
  {
    "smiles-structure": "NS(=O)(=O)c1ccc(-c2cc3ccncc3cc2OCc2ccccc2)cc1",
    "reading-unit": "%",
    "endpoint-value": 7.25
  },
  {
    "smiles-structure": "OCc1ccc(-c2nc(-c3ccccn3)c(-c3ccc4c(c3)OCO4)[nH]2)cc1",
    "reading-unit": "%",
    "endpoint-value": 11
  }
]

----------
- test-system: Serine/threonine-protein kinase PAK 5 (Homo sapiens)
- run-conditions: at 1 µM
- Description: GSK_PKIS: PAK5 mean inhibition at 1 uM [Nanosyn]

[
  {
    "smiles-structure": "O=C1Nc2ccc(-c3cccnc3)cc2C1=Cc1cc(Br)c(O)c(Br)c1",
    "test-system": "Serine/threonine-protein kinase PAK 5 (Homo sapiens)",
    "reading-unit": "%",
    "inhibition": -0.35
  },
  {
    "smiles-structure": "O=C(Nc1ccc(Oc2ccc3[nH]c(NC(=O)c4ccco4)nc3c2)cc1)Nc1cc(C(F)(F)F)ccc1F",
    "test-system": "Serine/threonine-protein kinase PAK 5 (Homo sapiens)",
    "reading-unit": "%",
    "inhibition": 6.36
  },
  {
    "smiles-structure": "FC(F)(F)c1ccc(-c2nn3ncccc3c2-c2ccnc(Nc3ccc4c(c3)OCCO4)n2)cc1",
    "test-system": "Serine/threonine-protein kinase PAK 5 (Homo sapiens)",
    "reading-unit": "%",
    "inhibition": 11.3
  },
  {
    "smiles-structure": "CCOc1nccc2c1nc(-c1nonc1N)n2CC",
    "test-system": "Serine/threonine-protein kinase PAK 5 (Homo sapiens)",
    "reading-unit": "%",
    "inhibition": 6.11
  },
  {
    "smiles-structure": "N#Cc1cccc(Nc2nccc(-c3cnn4ncccc34)n2)c1",
    "test-system": "Serine/threonine-protein kinase PAK 5 (Homo sapiens)",
    "reading-unit": "%",
    "inhibition": 12.7
  },
  {
    "smiles-structure": "N#Cc1c(NC(=O)c2ccccc2F)sc2c1CCCC2",
    "test-system": "Serine/threonine-protein kinase PAK 5 (Homo sapiens)",
    "reading-unit": "%",
    "inhibition": -0.86
  }
]

----------
- test-system: Leukocyte tyrosine kinase receptor (Homo sapiens) (UniProt P29376)
- Sequence (P29376 whole entry): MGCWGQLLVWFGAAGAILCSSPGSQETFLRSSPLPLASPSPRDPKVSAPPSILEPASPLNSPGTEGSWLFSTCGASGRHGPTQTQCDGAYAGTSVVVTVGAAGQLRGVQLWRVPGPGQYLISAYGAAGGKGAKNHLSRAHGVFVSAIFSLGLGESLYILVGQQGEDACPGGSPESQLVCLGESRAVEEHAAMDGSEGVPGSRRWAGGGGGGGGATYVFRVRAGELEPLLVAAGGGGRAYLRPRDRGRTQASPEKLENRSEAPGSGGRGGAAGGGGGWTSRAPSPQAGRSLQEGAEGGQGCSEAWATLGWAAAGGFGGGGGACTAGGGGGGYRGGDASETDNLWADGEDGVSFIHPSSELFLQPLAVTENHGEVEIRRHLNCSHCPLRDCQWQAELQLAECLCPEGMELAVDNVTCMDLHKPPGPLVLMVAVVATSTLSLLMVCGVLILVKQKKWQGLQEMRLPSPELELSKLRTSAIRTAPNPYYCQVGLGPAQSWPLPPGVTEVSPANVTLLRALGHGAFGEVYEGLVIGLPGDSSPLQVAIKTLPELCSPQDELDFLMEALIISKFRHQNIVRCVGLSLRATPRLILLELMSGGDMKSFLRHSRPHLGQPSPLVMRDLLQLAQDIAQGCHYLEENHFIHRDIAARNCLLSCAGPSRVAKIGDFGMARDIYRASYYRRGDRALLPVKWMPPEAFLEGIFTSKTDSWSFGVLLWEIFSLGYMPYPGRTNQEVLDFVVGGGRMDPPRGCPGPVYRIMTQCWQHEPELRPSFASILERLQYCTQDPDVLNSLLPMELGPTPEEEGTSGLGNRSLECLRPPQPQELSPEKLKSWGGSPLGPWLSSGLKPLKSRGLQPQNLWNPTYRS
- run-conditions: at 0.1 µM
- Description: GSK_PKIS: LTK mean inhibition at 0.1 uM [Nanosyn]
inhibition reference

[
  {
    "smiles-structure": "NS(=O)(=O)c1ccc(N/N=C2\\C(=O)Nc3ccc(Cl)cc32)cc1",
    "reading-unit": "%",
    "inhibition": 3.2
  },
  {
    "smiles-structure": "c1ccc(Cc2nc3ccc(Nc4ncnc5ccccc45)cc3[nH]2)cc1",
    "reading-unit": "%",
    "inhibition": 2.98
  },
  {
    "smiles-structure": "COC(=O)c1ccc2c(c1)C(=Cc1cc(Br)c(O)c(Br)c1)C(=O)N2",
    "reading-unit": "%",
    "inhibition": 6.76
  },
  {
    "smiles-structure": "CCS(=O)(=O)c1ccc(OC)c(Nc2nccc(N(C)c3ccc4c(C)n[nH]c4c3)n2)c1",
    "reading-unit": "%",
    "inhibition": 7.51
  },
  {
    "smiles-structure": "Cc1ccc2c(-c3ccnc(Nc4ccc5c(c4)OCCO5)n3)c(-c3ccc(C(F)(F)F)cc3)nn2n1",
    "reading-unit": "%",
    "inhibition": 0.85
  },
  {
    "smiles-structure": "Cc1ccc2c(-c3ccnc(Nc4cccc(C(F)(F)F)c4)n3)c(-c3ccccc3)nn2n1",
    "reading-unit": "%",
    "inhibition": 4.14
  },
  {
    "smiles-structure": "NS(=O)(=O)c1ccc(NC=C2C(=O)Nc3ccc4ncsc4c32)cc1",
    "reading-unit": "%",
    "inhibition": 4.74
  },
  {
    "smiles-structure": "COc1cc2ncn(-c3cc(OCc4ccccc4S(C)(=O)=O)c(C#N)s3)c2cc1OC",
    "reading-unit": "%",
    "inhibition": 4
  },
  {
    "smiles-structure": "FC(F)(F)c1ccc(-c2nn3ncccc3c2-c2ccnc(Nc3ccc4c(c3)OCCO4)n2)cc1",
    "reading-unit": "%",
    "inhibition": 1.18
  },
  {
    "smiles-structure": "Nc1nccc(-c2c(-c3ccc(F)cc3)nn3cc(C(F)(F)F)ccc23)n1",
    "reading-unit": "%",
    "inhibition": 1.83
  },
  {
    "smiles-structure": "NC(=O)c1cccc(Nc2nccc(Nc3cccc(F)c3)n2)c1",
    "reading-unit": "%",
    "inhibition": 0.75
  },
  {
    "smiles-structure": "CS(=O)(=O)CCNCc1nc(-c2ccc3ncnc(Nc4ccc(OCc5cccc(C(F)(F)F)c5)cc4)c3c2)cs1",
    "reading-unit": "%",
    "inhibition": 3.1
  },
  {
    "smiles-structure": "COc1cc2ncnc(Nc3ccc(C)c(O)c3)c2cc1OC",
    "reading-unit": "%",
    "inhibition": 6.58
  },
  {
    "smiles-structure": "COc1ccc2ncnc(Nc3ccc(OCc4ccccc4)cc3)c2c1",
    "reading-unit": "%",
    "inhibition": 2.27
  },
  {
    "smiles-structure": "NC(=O)c1sc(-n2cnc3ccccc32)cc1OCc1ccccc1Br",
    "reading-unit": "%",
    "inhibition": 4.25
  },
  {
    "smiles-structure": "[O-][S+]1CCN(Cc2ccc(-c3ccc4ncnc(Nc5ccc(OCc6ccccc6)c(Cl)c5)c4c3)o2)CC1",
    "reading-unit": "%",
    "inhibition": 2.41
  },
  {
    "smiles-structure": "CC(C)c1ccc2c(c1)NC(=O)/C2=N/Nc1ccc(S(N)(=O)=O)cc1",
    "reading-unit": "%",
    "inhibition": 1.63
  },
  {
    "smiles-structure": "Cc1ccc2c(c1)/C(=N/Nc1ccc(S(N)(=O)=O)cc1)C(=O)N2",
    "reading-unit": "%",
    "inhibition": 0.21
  },
  {
    "smiles-structure": "COC(=O)c1cncc(/C=C/c2c(C)cc(O)cc2C)c1",
    "reading-unit": "%",
    "inhibition": 3.77
  },
  {
    "smiles-structure": "NS(=O)(=O)c1cccc(-c2cc3ccncc3cc2OCc2ccccc2)c1",
    "reading-unit": "%",
    "inhibition": 2.44
  },
  {
    "smiles-structure": "CN(c1ccc(NC(=O)Nc2ccc(OC(F)(F)F)cc2)cc1)c1ccnc(Nc2cccc(S(N)(=O)=O)c2)n1",
    "reading-unit": "%",
    "inhibition": 2.69
  },
  {
    "smiles-structure": "Cc1cc(Cl)cc2c1NC(=O)C2=NNc1ccc(S(N)(=O)=O)cc1",
    "reading-unit": "%",
    "inhibition": 2.82
  },
  {
    "smiles-structure": "N#Cc1cccc(Nc2nccc(-c3cnn4ncccc34)n2)c1",
    "reading-unit": "%",
    "inhibition": 6.31
  },
  {
    "smiles-structure": "C[C@@H](Oc1cc(-n2cnc3ccc(OCC4CCN(C)CC4)cc32)sc1C(N)=O)c1ccccc1C(F)(F)F",
    "reading-unit": "%",
    "inhibition": -0.86
  },
  {
    "smiles-structure": "CN(C)C(=O)O[C@H]1CN[C@H](C#Cc2cc3ncnc(Nc4ccc(OCc5cccc(F)c5)c(Cl)c4)c3s2)C1",
    "reading-unit": "%",
    "inhibition": 1.7
  },
  {
    "smiles-structure": "NS(=O)(=O)c1cccc(Nc2cc(-c3ccc(F)cc3)n[nH]2)c1",
    "reading-unit": "%",
    "inhibition": 3.59
  },
  {
    "smiles-structure": "COC(=O)Nc1nc2cc(Oc3ccc(NC(=O)Nc4cccc(Br)c4)cc3)ccc2[nH]1",
    "reading-unit": "%",
    "inhibition": 3.48
  },
  {
    "smiles-structure": "C[C@@H](Oc1cc(-n2cnc3ccc(OC[C@@H](O)CO)cc32)sc1C(N)=O)c1ccccc1Cl",
    "reading-unit": "%",
    "inhibition": -0.43
  },
  {
    "smiles-structure": "Cc1cc(O)cc(C)c1/C=C/c1cncc(C(=O)N(C)C)c1",
    "reading-unit": "%",
    "inhibition": 2.93
  },
  {
    "smiles-structure": "Cc1ccc(Nc2ccnc(Nc3cccc(C(N)=O)c3)n2)cc1O",
    "reading-unit": "%",
    "inhibition": 4.36
  },
  {
    "smiles-structure": "CC(C)c1ccc(Nc2nccc(-c3cnn4ncccc34)n2)cc1",
    "reading-unit": "%",
    "inhibition": 2.91
  },
  {
    "smiles-structure": "COc1cccc(-n2ncc3c(N/N=C/c4ccc(S(C)(=O)=O)cc4)ncnc32)c1",
    "reading-unit": "%",
    "inhibition": 1.43
  },
  {
    "smiles-structure": "CCOc1nccc2c1nc(-c1nonc1N)n2CC",
    "reading-unit": "%",
    "inhibition": 1.89
  },
  {
    "smiles-structure": "OCc1ccc(-c2nc(-c3ccccn3)c(-c3ccc4c(c3)OCO4)[nH]2)cc1",
    "reading-unit": "%",
    "inhibition": 3.45
  },
  {
    "smiles-structure": "O=C(Nc1ccc(Oc2ccc3[nH]c(NC(=O)c4ccco4)nc3c2)cc1)Nc1cc(C(F)(F)F)ccc1F",
    "reading-unit": "%",
    "inhibition": 0.05
  },
  {
    "smiles-structure": "Cc1cc(-c2ccccn2)cc(C)c1/C=C/c1cncc(-c2nn[nH]n2)c1",
    "reading-unit": "%",
    "inhibition": 4.42
  },
  {
    "smiles-structure": "O=S(=O)(CCOCc1ccc(-c2ccc3ncnc(Nc4ccc(OCc5cccc(F)c5)c(Cl)c4)c3c2)o1)c1ccccc1",
    "reading-unit": "%",
    "inhibition": 2.35
  },
  {
    "smiles-structure": "CS(=O)(=O)Nc1cccc(-c2ccc3c(NC(=O)C4CC4)n[nH]c3c2)c1",
    "reading-unit": "%",
    "inhibition": 1.68
  },
  {
    "smiles-structure": "NS(=O)(=O)c1ccc(-c2cc3ccncc3cc2OCc2ccccc2)cc1",
    "reading-unit": "%",
    "inhibition": 6.08
  },
  {
    "smiles-structure": "COc1cc(Nc2nccc(-c3cnn4ncccc34)n2)cc(OC)c1",
    "reading-unit": "%",
    "inhibition": 4.41
  }
]

The reported numbers originate from ChEMBL document CHEMBL1961873.
